- assay.remarks: Skin permeability, Franz Cell diffusion cell with artificial skin, Transdermal Diffusion Tester, BCA assay
- Assay type: in vitro ADME
- assay.setup: 32° C., 1.0 mg/mL in PBS, after 24 hours
- Experimental: As used herein, the term “skin permeation rate” of a cyclic oligopeptide is measured using artificial skin (Start M, Merck), and refers to the percentage of the cyclic oligopeptide that penetrate the artificial skin after certain amount of time. […] As used herein, the term “skin permeability coefficient (Kp)” refers to the rate at which the cyclic oligopeptide penetrates the skin, as measured using artificial skin (Start M, Merck). […]
Square brackets hold non-standard residues; d marks the D form. Peptide text beside a SMILES is read from it.
Average Permeation Rate After 24 Hours (%) by entry:
Only the number, expressed in %, is required.

Known Average Permeation Rate After 24 Hours (%) results, listed for orientation:
Tell me the measured Average Permeation Rate After 24 Hours (%) of CC(C)[C@H]1NC(=O)[C@H]([C@@H](C)O)NC(=O)[C@H](CCCNC(=N)N)NC(=O)[C@H]2CCCN2C(=O)[C@@H](Cc2ccccc2)NC(=O)[C@H](CCC(=O)O)NC1=O [Compound 2, Arg Thr D-Val Glu D-Phe D-Pro] (cyclo(E[dF][dP]RT[dV])) , please.
30.51

Name the reported Average Permeation Rate After 24 Hours (%) value associated with the compound CC(C)[C@H]1NC(=O)[C@H](CCC(=O)O)NC(=O)[C@H](CCCNC(=N)N)NC(=O)[C@H]2CCCN2C(=O)[C@H]2CCCN2C(=O)[C@H](Cc2c[nH]c3ccccc23)NC1=O [Compound 4, Arg Glu D-Val Trp D-Pro D-Pro] (cyclo(E[dV]W[dP][dP]R))
35.59

Which measured Average Permeation Rate After 24 Hours (%) value corresponds to CC(C)[C@H]1NC(=O)[C@@H]([C@H](C)O)NC(=O)[C@H](CCC(=O)O)NC(=O)[C@H](CCCNC(=N)N)NC(=O)[C@H](Cc2ccc(O)cc2)NC(=O)[C@H]2CCCN2C1=O [Compound 6, Tyr Arg Glu D-Thr D-Val D-Pro] (cyclo(E[dT][dV][dP]YR)) ?
33.86

We now examine a further compound.
Reported Average Permeation Rate After 24 Hours (%) for CC(C)[C@@H]1NC(=O)[C@H](Cc2c[nH]c3ccccc23)NC(=O)[C@H]2CCCN2C(=O)[C@H]2CCCN2C(=O)[C@H](CCC(=O)O)NC(=O)[C@H](CCCNC(=N)N)NC1=O [Compound 5, Trp Val Arg Glu D-Pro D-Pro] (cyclo(E[dP][dP]WVR)) : what is it?
48.73
